In what follows, each item is paired with its pKd for Tyrosine-protein kinase SYK (Homo sapiens).
pKd: −log10 of the molar value.

Reference set (3 entries):
INSERT INTO measurements (compound, result) VALUES
  ('CCOc1cc2ncc(C#N)c(Nc3ccc(F)c(Cl)c3)c2cc1NC(=O)/C=C/CN(C)C [PELITINIB]', 5.14),
  ('COCC(=O)NC/C=C/c1ccc2ncnc(Nc3ccc(Oc4ccc(C)nc4)c(C)c3)c2c1 [CP-724714]', '< 5.00'),
  ('NC(=O)c1ccc(-c2nc(-c3ccc4c(c3)OCO4)c(-c3ccccn3)[nH]2)cc1 [SB-431542]', '< 5.00');

Shift focus to the following entry.
Reported pKd, compound Oc1ccc(-c2nc(-c3ccncc3)c(-c3ccc(F)cc3)[nH]2)cc1 [SB-202190] : ____
< 5.00

----------
- target_or_test_system: Serine/threonine-protein kinase D3 (Homo sapiens)
- Sequence (O94806 whole entry): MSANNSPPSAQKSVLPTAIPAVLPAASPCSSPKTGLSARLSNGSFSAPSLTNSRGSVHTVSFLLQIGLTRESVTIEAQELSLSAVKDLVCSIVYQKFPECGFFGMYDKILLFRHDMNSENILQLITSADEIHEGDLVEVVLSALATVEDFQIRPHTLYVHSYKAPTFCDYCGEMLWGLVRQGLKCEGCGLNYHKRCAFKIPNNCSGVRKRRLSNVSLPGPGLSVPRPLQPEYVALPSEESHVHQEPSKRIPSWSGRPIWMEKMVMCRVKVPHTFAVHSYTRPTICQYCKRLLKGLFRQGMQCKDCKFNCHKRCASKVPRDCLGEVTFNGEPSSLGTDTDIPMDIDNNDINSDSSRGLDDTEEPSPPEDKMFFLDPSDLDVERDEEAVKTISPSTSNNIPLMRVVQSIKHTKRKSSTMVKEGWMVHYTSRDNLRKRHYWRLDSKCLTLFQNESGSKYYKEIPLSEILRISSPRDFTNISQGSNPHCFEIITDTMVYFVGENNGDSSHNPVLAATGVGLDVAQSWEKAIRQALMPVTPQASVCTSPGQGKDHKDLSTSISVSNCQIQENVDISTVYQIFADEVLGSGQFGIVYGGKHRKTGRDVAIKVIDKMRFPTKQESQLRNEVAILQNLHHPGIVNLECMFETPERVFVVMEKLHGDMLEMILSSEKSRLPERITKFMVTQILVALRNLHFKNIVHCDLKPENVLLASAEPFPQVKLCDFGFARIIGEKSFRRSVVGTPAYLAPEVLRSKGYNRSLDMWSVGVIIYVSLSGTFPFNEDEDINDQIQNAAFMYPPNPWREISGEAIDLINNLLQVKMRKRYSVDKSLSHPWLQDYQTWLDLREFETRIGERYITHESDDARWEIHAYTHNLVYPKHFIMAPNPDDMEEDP
Field: Kd. Provide a value for each of the molecules that follow.

Kindly give each listed record's Kd.
1. Oc1ccc(-c2nc(-c3ccncc3)c(-c3ccc(F)cc3)[nH]2)cc1
2. COCC(=O)NC/C=C/c1ccc2ncnc(Nc3ccc(Oc4ccc(C)nc4)c(C)c3)c2c1
3. CCOc1cc2ncc(C#N)c(Nc3ccc(F)c(Cl)c3)c2cc1NC(=O)/C=C/CN(C)C

1. > 10 µM
2. > 10 µM
3. > 10 µM

----------
- target_or_test_system: RAC-alpha serine/threonine-protein kinase (Homo sapiens, UniProt P31749)
- Sequence (P31749 whole entry): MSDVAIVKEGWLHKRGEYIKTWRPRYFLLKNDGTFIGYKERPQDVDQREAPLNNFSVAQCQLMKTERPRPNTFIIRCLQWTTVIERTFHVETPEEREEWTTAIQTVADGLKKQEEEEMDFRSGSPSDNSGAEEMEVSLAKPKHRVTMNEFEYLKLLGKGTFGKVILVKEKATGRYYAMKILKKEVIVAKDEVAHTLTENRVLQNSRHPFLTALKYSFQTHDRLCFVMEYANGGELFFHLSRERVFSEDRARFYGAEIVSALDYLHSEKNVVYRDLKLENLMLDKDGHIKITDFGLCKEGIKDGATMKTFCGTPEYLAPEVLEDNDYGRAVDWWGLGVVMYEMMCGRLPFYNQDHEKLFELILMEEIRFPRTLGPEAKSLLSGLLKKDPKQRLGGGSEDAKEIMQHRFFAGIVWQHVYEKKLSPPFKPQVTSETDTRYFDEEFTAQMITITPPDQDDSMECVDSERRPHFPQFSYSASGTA
Field: Kd. Provide a value for each of the molecules that follow.

Reference set (4 entries):
INSERT INTO assay_data (smiles, assay_endpoint, result) VALUES
  ('COCC(=O)NC/C=C/c1ccc2ncnc(Nc3ccc(Oc4ccc(C)nc4)c(C)c3)c2c1', 'Kd', '> 10 µM'),
  ('Oc1ccc(-c2nc(-c3ccncc3)c(-c3ccc(F)cc3)[nH]2)cc1', 'Kd', '> 10 µM'),
  ('NC(=O)c1ccc(-c2nc(-c3ccc4c(c3)OCO4)c(-c3ccccn3)[nH]2)cc1', 'Kd', '> 10 µM'),
  ('Nc1nc(Nc2ccc(S(N)(=O)=O)cc2)nn1C(=O)c1c(F)cccc1F', 'Kd', '> 10 µM');

Shift focus to the following entry.
Reported Kd, molecule CCOc1cc2ncc(C#N)c(Nc3ccc(F)c(Cl)c3)c2cc1NC(=O)/C=C/CN(C)C : ____
> 10 µM

----------
Field: pKd. Provide a value for each of the compounds that follow.
- target_or_test_system: Discoidin domain-containing receptor 2 (Homo sapiens, UniProt Q16832)
- Sequence (Q16832 whole entry, the tested form may be a part): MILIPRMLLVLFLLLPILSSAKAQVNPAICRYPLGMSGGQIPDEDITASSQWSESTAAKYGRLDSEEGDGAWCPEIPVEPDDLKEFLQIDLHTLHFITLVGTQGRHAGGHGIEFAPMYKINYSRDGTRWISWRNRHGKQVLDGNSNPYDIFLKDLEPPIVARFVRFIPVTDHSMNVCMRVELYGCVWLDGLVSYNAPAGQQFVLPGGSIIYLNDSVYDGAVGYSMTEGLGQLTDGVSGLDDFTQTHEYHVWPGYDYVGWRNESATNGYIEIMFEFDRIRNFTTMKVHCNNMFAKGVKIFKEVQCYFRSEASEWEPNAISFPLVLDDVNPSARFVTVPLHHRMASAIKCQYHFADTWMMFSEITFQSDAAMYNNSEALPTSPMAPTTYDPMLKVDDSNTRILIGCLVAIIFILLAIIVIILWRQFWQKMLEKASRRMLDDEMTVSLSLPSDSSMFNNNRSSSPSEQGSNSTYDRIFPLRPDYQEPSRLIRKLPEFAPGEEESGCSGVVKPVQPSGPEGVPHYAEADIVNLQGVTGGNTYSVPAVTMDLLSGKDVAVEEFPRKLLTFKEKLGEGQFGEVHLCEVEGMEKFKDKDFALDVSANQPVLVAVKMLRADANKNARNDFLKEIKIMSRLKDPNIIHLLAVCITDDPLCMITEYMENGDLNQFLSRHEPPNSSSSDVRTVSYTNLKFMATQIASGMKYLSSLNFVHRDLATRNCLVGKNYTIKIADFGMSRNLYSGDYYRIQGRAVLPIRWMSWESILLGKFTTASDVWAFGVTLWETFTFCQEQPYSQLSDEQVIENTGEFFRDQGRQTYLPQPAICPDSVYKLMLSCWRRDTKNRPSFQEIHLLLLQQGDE
pKd: −log10 of the molar value.

Reference set (4 entries):
INSERT INTO results (compound, result) VALUES
  ('NC(=O)c1ccc(-c2nc(-c3ccc4c(c3)OCO4)c(-c3ccccn3)[nH]2)cc1 [SB-431542]', '< 5.00'),
  ('CCOc1cc2ncc(C#N)c(Nc3ccc(F)c(Cl)c3)c2cc1NC(=O)/C=C/CN(C)C [PELITINIB]', '< 5.00'),
  ('Oc1ccc(-c2nc(-c3ccncc3)c(-c3ccc(F)cc3)[nH]2)cc1 [SB-202190]', 5.80),
  ('COCC(=O)NC/C=C/c1ccc2ncnc(Nc3ccc(Oc4ccc(C)nc4)c(C)c3)c2c1 [CP-724714]', '< 5.00');

Shift focus to the following entry.
Give pKd (Discoidin domain-containing receptor 2 (Homo sapiens, UniProt Q16832)) of the following compound: Nc1nc(Nc2ccc(S(N)(=O)=O)cc2)nn1C(=O)c1c(F)cccc1F [JNJ-7706621]
< 5.00

----------
In what follows, each item is paired with its Kd for UniProt:P33981.
Sequence (P33981 whole entry): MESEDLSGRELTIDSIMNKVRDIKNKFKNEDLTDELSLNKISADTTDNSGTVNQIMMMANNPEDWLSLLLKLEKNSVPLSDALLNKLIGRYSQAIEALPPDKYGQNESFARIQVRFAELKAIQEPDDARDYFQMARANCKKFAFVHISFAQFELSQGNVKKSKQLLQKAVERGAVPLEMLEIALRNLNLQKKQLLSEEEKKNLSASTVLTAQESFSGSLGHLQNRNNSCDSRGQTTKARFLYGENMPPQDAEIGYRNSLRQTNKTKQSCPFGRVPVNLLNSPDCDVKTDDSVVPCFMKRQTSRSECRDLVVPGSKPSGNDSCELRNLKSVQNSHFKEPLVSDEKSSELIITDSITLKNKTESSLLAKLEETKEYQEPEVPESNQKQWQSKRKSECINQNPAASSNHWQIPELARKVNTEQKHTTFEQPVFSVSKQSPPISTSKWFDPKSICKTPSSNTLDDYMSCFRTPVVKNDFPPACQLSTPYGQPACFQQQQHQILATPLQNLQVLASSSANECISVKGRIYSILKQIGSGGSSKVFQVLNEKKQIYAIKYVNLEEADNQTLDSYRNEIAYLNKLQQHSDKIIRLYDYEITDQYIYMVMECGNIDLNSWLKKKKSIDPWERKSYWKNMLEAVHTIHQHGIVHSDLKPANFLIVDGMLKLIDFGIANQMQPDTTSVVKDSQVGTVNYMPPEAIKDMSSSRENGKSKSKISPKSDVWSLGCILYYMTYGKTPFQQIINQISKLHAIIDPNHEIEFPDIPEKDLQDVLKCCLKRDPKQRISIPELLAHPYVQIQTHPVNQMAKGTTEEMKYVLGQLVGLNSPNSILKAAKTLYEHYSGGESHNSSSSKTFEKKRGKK

Reference set (3 entries):
INSERT INTO assay_data (compound, result) VALUES
  ('NC(=O)c1ccc(-c2nc(-c3ccc4c(c3)OCO4)c(-c3ccccn3)[nH]2)cc1 [SB-431542]', '> 10 µM'),
  ('Oc1ccc(-c2nc(-c3ccncc3)c(-c3ccc(F)cc3)[nH]2)cc1 [SB-202190]', '4.5 µM'),
  ('COCC(=O)NC/C=C/c1ccc2ncnc(Nc3ccc(Oc4ccc(C)nc4)c(C)c3)c2c1 [CP-724714]', '> 10 µM');

Shift focus to the following entry.
Give Kd (UniProt:P33981) of the following compound: CCOc1cc2ncc(C#N)c(Nc3ccc(F)c(Cl)c3)c2cc1NC(=O)/C=C/CN(C)C [PELITINIB]
> 10 µM

----------
In what follows, each item is paired with its pKd for Tyrosine-protein kinase Fyn (Homo sapiens).
pKd: −log10 of the molar value.

Reference set (2 entries):
INSERT INTO measurements (molecule, result) VALUES
  ('NC(=O)c1ccc(-c2nc(-c3ccc4c(c3)OCO4)c(-c3ccccn3)[nH]2)cc1 [SB-431542]', '< 5.00'),
  ('COCC(=O)NC/C=C/c1ccc2ncnc(Nc3ccc(Oc4ccc(C)nc4)c(C)c3)c2c1 [CP-724714]', '< 5.00');

Shift focus to the following entry.
Reported pKd, molecule Oc1ccc(-c2nc(-c3ccncc3)c(-c3ccc(F)cc3)[nH]2)cc1 [SB-202190] : ____
< 5.00

----------
In what follows, each item is paired with its Kd for Mitogen-activated protein kinase kinase kinase 20 (Homo sapiens, UniProt Q9NYL2).

INSERT INTO measurements (smiles, result) VALUES
  ('Nc1nc(Nc2ccc(S(N)(=O)=O)cc2)nn1C(=O)c1c(F)cccc1F', '> 10 µM');

Kindly give each listed record's Kd.
1. CCOc1cc2ncc(C#N)c(Nc3ccc(F)c(Cl)c3)c2cc1NC(=O)/C=C/CN(C)C
2. NC(=O)c1ccc(-c2nc(-c3ccc4c(c3)OCO4)c(-c3ccccn3)[nH]2)cc1

1. 1.2 µM
2. > 10 µM

Kindly give each listed record's Kd.
1. Oc1ccc(-c2nc(-c3ccncc3)c(-c3ccc(F)cc3)[nH]2)cc1
2. COCC(=O)NC/C=C/c1ccc2ncnc(Nc3ccc(Oc4ccc(C)nc4)c(C)c3)c2c1

1: > 10 µM; 2: > 10 µM

----------
In what follows, each item is paired with its pKd for Citron Rho-interacting kinase (Homo sapiens).
One number for each entry, as −log10 of the molar value.

INSERT INTO assay_data (molecule, number) VALUES
  ('Oc1ccc(-c2nc(-c3ccncc3)c(-c3ccc(F)cc3)[nH]2)cc1 [SB-202190]', 6.29);

Shift focus to the following entry.
Reported pKd, molecule CCOc1cc2ncc(C#N)c(Nc3ccc(F)c(Cl)c3)c2cc1NC(=O)/C=C/CN(C)C [PELITINIB] : ____
6.51

----------
- target_or_test_system: Serine/threonine-protein kinase RIO3 (Homo sapiens, UniProt O14730)
- Sequence (O14730 whole entry): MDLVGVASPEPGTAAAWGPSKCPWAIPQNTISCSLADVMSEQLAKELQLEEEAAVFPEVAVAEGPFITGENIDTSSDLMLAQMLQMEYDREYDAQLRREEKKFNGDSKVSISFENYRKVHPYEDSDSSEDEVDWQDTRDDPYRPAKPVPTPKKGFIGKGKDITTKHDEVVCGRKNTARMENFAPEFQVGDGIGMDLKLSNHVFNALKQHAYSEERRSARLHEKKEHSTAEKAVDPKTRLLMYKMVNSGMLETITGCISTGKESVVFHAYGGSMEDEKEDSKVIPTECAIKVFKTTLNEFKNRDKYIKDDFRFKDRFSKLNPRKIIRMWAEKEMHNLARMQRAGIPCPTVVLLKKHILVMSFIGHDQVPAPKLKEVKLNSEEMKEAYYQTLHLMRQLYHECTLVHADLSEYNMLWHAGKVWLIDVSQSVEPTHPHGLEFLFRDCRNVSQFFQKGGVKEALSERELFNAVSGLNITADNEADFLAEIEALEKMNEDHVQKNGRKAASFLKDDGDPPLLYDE
assay_endpoint: Kd

INSERT INTO measurements (smiles, result) VALUES
  ('CCOc1cc2ncc(C#N)c(Nc3ccc(F)c(Cl)c3)c2cc1NC(=O)/C=C/CN(C)C', '> 10 µM');

Kindly give each listed record's Kd.
1. NC(=O)c1ccc(-c2nc(-c3ccc4c(c3)OCO4)c(-c3ccccn3)[nH]2)cc1
2. Nc1nc(Nc2ccc(S(N)(=O)=O)cc2)nn1C(=O)c1c(F)cccc1F
3. Oc1ccc(-c2nc(-c3ccncc3)c(-c3ccc(F)cc3)[nH]2)cc1
4. COCC(=O)NC/C=C/c1ccc2ncnc(Nc3ccc(Oc4ccc(C)nc4)c(C)c3)c2c1

1: > 10 µM; 2: 1.2 µM; 3: > 10 µM; 4: > 10 µM
